# TESTED_TARGET: ALDH1A3 (Homo sapiens, UniProt P47895)
# Sequence (P47895 1-512): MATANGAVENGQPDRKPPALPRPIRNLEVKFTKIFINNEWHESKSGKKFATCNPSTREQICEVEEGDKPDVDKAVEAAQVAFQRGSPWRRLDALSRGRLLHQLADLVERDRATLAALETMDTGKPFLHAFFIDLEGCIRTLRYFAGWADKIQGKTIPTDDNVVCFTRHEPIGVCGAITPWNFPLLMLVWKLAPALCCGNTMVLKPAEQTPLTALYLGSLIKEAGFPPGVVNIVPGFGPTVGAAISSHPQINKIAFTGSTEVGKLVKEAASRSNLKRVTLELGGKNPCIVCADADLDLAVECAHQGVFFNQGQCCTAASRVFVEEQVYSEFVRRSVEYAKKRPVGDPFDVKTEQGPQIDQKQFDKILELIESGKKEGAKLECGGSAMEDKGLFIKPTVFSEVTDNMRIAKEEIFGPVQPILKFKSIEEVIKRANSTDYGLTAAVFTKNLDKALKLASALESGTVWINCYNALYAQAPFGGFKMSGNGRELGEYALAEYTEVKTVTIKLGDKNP
TEST_READOUT: IC50 (µM)

chemical_smiles=CCN(CC)c1ccc(C=O)cc1 test_readout=IC50 unit_label=µM readout_value=3
